As shown below, each of these molecules has a reported inhibition at 30 µM value.
target: HIV-1 IN (Human immunodeficiency virus type 1 group M subtype B, UniProt P04585); construct: using HIV-1 IN enzymes according to the multiplate integration assay (MIA); experiment: HIV-1 IN inhibitory activity, multiplate integration assay (MIA); assay type: biochemical; details: 30 μM; read-out: % Inhibition at various concentrations
# unit: % | format: bare number

Sure, the documented inhibition at 30 µM for C=C(C)[C@@H]1CC[C@]2(C(=O)O)CC[C@]3(C)[C@H](CC[C@@H]4[C@@]5(C)CC[C@H](O)C(C)(C)[C@@H]5CC[C@]43C)[C@@H]12 is 53.2

Sure, the documented inhibition at 30 µM for C=C(C)[C@@H]1CC[C@]2(C)CC[C@]3(C)[C@H](CC[C@@H]4[C@@]5(C)CC[C@H](O)C(C)(C)[C@@H]5CC[C@]43C)[C@@H]12 is 25.9

Sure, the documented inhibition at 30 µM for CC1(C)CC[C@]2(C(=O)O)CC[C@]3(C)C(=CC[C@@H]4[C@@]5(C)CC[C@H](O)C(C)(C)[C@@H]5CC[C@]43C)[C@@H]2C1 is 49.1

Sure, the documented inhibition at 30 µM for C=C(C)[C@@H]1CC[C@]2(CO)CC[C@]3(C)[C@H](CC[C@@H]4[C@@]5(C)CC[C@H](O)C(C)(C)[C@@H]5CC[C@]43C)[C@@H]12 is 57.6

Sure, the documented inhibition at 30 µM for Cc1ccc(C(=O)Nc2ccc(S(=O)(=O)O)c3cc(S(=O)(=O)O)cc(S(=O)(=O)O)c23)cc1NC(=O)c1cccc(NC(=O)Nc2cccc(C(=O)Nc3cc(C(=O)Nc4ccc(S(=O)(=O)O)c5cc(S(=O)(=O)O)cc(S(=O)(=O)O)c45)ccc3C)c2)c1 [Suramin, reference compound] is 93.3

Sure, the documented inhibition at 30 µM for C[C@H]1[C@H](C)CC[C@]2(C(=O)O)CC[C@]3(C)C(=CC[C@@H]4[C@@]5(C)CC[C@H](O)C(C)(C)[C@@H]5CC[C@]43C)[C@H]12 is 48.5

###

As shown below, each of these compounds has a reported IC50 value.
biological target: HIV-1 IN (Human immunodeficiency virus type 1 group M subtype B); construct: using HIV-1 IN enzymes according to the multiplate integration assay (MIA); assay: HIV-1 IN inhibitory activity, multiplate integration assay (MIA); assay type: biochemical; settings: mean ± S.E.M. of four determinations; read-out: IC50, anti-HIV-1 integrase activity
# unit: µM | format: bare number

C=C(C)[C@@H]1CC[C@]2(C(=O)O)CC[C@]3(C)[C@H](CC[C@@H]4[C@@]5(C)CC[C@H](O)C(C)(C)[C@@H]5CC[C@]43C)[C@@H]12 = 24.8
Cc1ccc(C(=O)Nc2ccc(S(=O)(=O)O)c3cc(S(=O)(=O)O)cc(S(=O)(=O)O)c23)cc1NC(=O)c1cccc(NC(=O)Nc2cccc(C(=O)Nc3cc(C(=O)Nc4ccc(S(=O)(=O)O)c5cc(S(=O)(=O)O)cc(S(=O)(=O)O)c45)ccc3C)c2)c1 [Suramin, reference compound] = 2.8
C[C@H]1[C@H](C)CC[C@]2(C(=O)O)CC[C@]3(C)C(=CC[C@@H]4[C@@]5(C)CC[C@H](O)C(C)(C)[C@@H]5CC[C@]43C)[C@H]12 = 35

Sure, the documented IC50 for C=C(C)[C@@H]1CC[C@]2(CO)CC[C@]3(C)[C@H](CC[C@@H]4[C@@]5(C)CC[C@H](O)C(C)(C)[C@@H]5CC[C@]43C)[C@@H]12 is 17.7

###

tested on: LPS-induced nitric oxide production in RAW264.7 cells; assay: Inhibitory effect on LPS-induced nitric oxide (NO) production in RAW264.7 cells (Griess reagent); assay type: cell-based; conditions: Mus musculus, RAW264.7; 3 μM, LPS 100 ng/ml, 24 h; read-out: % Inhibition at various concentration (μM), NO production
As shown below, each of these compounds has a reported inhibition at 3 µM value.
# unit: % | format: bare number

// solved cases for inhibition at 3 µM follow
C=C(C)[C@@H]1CC[C@]2(C)CC[C@]3(C)[C@H](CC[C@@H]4[C@@]5(C)CC[C@H](O)C(C)(C)[C@@H]5CC[C@]43C)[C@@H]12 = 6
O=C(/C=C/c1ccc(O)c(O)c1)OCCc1ccccc1 [CAPE, caffeic acid phenethyl ester, reference compound] = 22.7
C=C(C)[C@@H]1CC[C@]2(C(=O)O)CC[C@]3(C)[C@H](CC[C@@H]4[C@@]5(C)CC[C@H](O)C(C)(C)[C@@H]5CC[C@]43C)[C@@H]12 = 14.6

Fill in: LPS-induced nitric oxide production in RAW264.7 cells inhibition at 3 µM for CC1(C)CC[C@]2(C(=O)O)CC[C@]3(C)C(=CC[C@@H]4[C@@]5(C)CC[C@H](O)C(C)(C)[C@@H]5CC[C@]43C)[C@@H]2C1 = 10.9

Fill in: LPS-induced nitric oxide production in RAW264.7 cells inhibition at 3 µM for C[C@H]1[C@H](C)CC[C@]2(C(=O)O)CC[C@]3(C)C(=CC[C@@H]4[C@@]5(C)CC[C@H](O)C(C)(C)[C@@H]5CC[C@]43C)[C@H]12 = 5.4

Fill in: LPS-induced nitric oxide production in RAW264.7 cells inhibition at 3 µM for COc1ccc2c(c1)c(CC(=O)O)c(C)n2C(=O)c1ccc(Cl)cc1 [Indomethacin, indomethacin, reference compound] = 32
